Reported selectivity ratio is given for each of the following compounds.
assay: Selectivity index, ratio of CC50 for cytotoxicity against human MT4 cells to EC50 for antiviral activity against HIV1 IIIB infected in human MT4 cells; assay type: toxicity, cell-based; details: read-out: Ratio CC50/EC50

Illustrative cases are given below, each with its answer.
The compound listed as `COc1ccc(-n2c([C@H](Cc3cc(F)cc(F)c3)NC(=O)CN3CCN(S(=O)(=O)c4ccc([N+](=O)[O-])cc4)CC3)nc3cc(F)ccc3c2=O)cc1` shows selectivity ratio equal to > 338

Briefly, selectivity ratio measured for `COc1ccc(N(C)C(=O)[C@H](Cc2cc(F)cc(F)c2)NC(=O)CN2CCN(C(=O)Cc3c[nH]c4ccc(O)cc34)CC2=O)cc1` : < 1

// sample `COc1ccc(N(C)C(=O)[C@H](Cc2cc(F)cc(F)c2)NC(=O)CN2CCN(S(=O)(=O)c3cccc(N)c3)CC2)cc1` , its selectivity ratio was 679

Item: `COC(=O)C(C)(C)Sc1nnc([C@H](Cc2ccccc2)NC(=O)Cc2c(C)[nH]c3ccccc23)n1-c1ccc(OC)cc1` | selectivity ratio: 8

The value of selectivity ratio measured for the compound `COc1ccc(-n2c(SCc3ccc(S(N)(=O)=O)cc3)nnc2[C@H](Cc2ccccc2)NC(=O)Cc2c(C)[nH]c3ccccc23)cc1` turned out to be > 76

Form field selectivity ratio, entry `COc1ccc(-n2c([C@H](Cc3ccccc3)NC(=O)CN3CCN(S(=O)(=O)c4ccc(N)cc4)CC3)nc3ccccc3c2=O)cc1` : > 291

Continuing:
The recorded selectivity ratio for `COc1ccc(C(=O)Nc2ccn(CC(=O)N[C@@H](Cc3ccccc3)C(=O)N(C)c3ccc(OC)cc3)c(=O)c2)cc1` is 1.79

The reported value for `O=C(CN1CCN(S(=O)(=O)c2ccc([N+](=O)[O-])cc2)CC1)N[C@@H](Cc1cc(F)cc(F)c1)c1nc2ccccc2c(=O)n1-c1ccc(S(=O)(=O)N2CCS(=O)(=O)CC2)cc1` in terms of selectivity ratio is > 45.6

---

// reported selectivity ratio for each item listed
assay: Selectivity index, ratio of CC50 for cytotoxicity against human MT4 cells to EC50 for antiviral activity against HIV2 ROD infected in human MT4 cells; type: toxicity, cell-based; conditions: read-out: Ratio CC50/EC50
Please reply with the number alone, leaving off any unit.

Observe how each entry below is paired with its result.
Given item `COc1ccc(N(C)C(=O)[C@H](Cc2ccccc2)NC(=O)CN2CCN(C(=O)c3ccc(NC(=O)C4CC4)cc3)CC2=O)cc1` , the value recorded as its selectivity ratio is 11.2

Just so you know, measured selectivity ratio for `COc1ccc(N(C)C(=O)[C@H](Cc2cc(F)cc(F)c2)NC(=O)CN(Cc2ccccc2)C(=O)Cc2c(C)[nH]c3ccccc23)cc1` came out at 4

As a next step, examine the compound that follows.
response.value for `COc1ccc(N(C)C(=O)[C@H](Cc2cc(F)cc(F)c2)NC(=O)CN(Cc2ccc(F)cc2)C(=O)Cc2ccc(B(O)O)cc2)cc1` (field: selectivity ratio) = 3

---

experiment: Cytotoxicity against human MT4 cells assessed as reduction in cell viability incubated for 5 days by MTT assay; format: toxicity, cell-based; conditions: MT4 cells, time 5 day
measured.attribute: CC50 at 120 h

Lab note: `COc1ccc(-n2c([C@H](Cc3ccccc3)NC(=O)CN3CCN(S(=O)(=O)c4ccc(N)cc4)CC3)nc3ccccc3c2=O)cc1` gave CC50 at 120 h of > 187 µM

So, `COc1ccc(-n2c([C@H](Cc3ccccc3)NC(=O)CN3CCN(S(=O)(=O)c4ccc([N+](=O)[O-])cc4)CC3)nc3cc(F)ccc3c2=O)cc1` ? Its CC50 at 120 h was > 175 µM

What the record says about `COc1ccc(N(C)C(=O)[C@H](Cc2ccccc2)NC(=O)CN2CCN(C(=O)c3ccc(NC(C)=O)cc3)CC2=O)cc1` : CC50 at 120 h is > 213 µM

Value of CC50 at 120 h reported for the compound `COc1ccc(N(C)C(=O)[C@H](Cc2cc(F)cc(F)c2)NC(=O)CN2CCN(C(=O)c3ccc(NS(C)(=O)=O)cc3)CC2=O)cc1` is > 190 µM

Quick note, CC50 at 120 h for `COc1ccc(-n2c([C@H](Cc3ccccc3)NC(=O)CN3CCN(S(=O)(=O)c4ccc(N)cc4)CC3)nc3cc(Cl)ccc3c2=O)cc1` landed at > 178 µM

---

assay: Selectivity index, ratio of CC50 for cytotoxicity against human MT4 cells to EC50 for antiviral activity against HIV2 ROD infected in human MT4 cells; format: toxicity, cell-based; conditions: read-out: Ratio CC50/EC50
As shown below, each of these compounds has a reported selectivity ratio value.

Example results:
For reference, reported selectivity ratio for `COc1ccc(N(C)C(=O)[C@H](Cc2ccccc2)NC(=O)CN2CCN(C(=O)Cc3c[nH]c4ccc(O)cc34)CC2=O)cc1` stands at > 1.12

Entry `COc1ccc(N(C)C(=O)[C@H](Cc2cc(F)cc(F)c2)NC(=O)CN(CC2CCCCC2)C(=O)Cc2c[nH]c3ccc(Br)cc23)cc1` , selectivity ratio reported as < 1

Please turn your attention to the following entry.
Briefly, selectivity ratio measured for `COc1ccc(-n2c([C@H](Cc3cc(F)cc(F)c3)NC(=O)CN3CCN(S(=O)(=O)c4ccc(N)cc4)CC3)nc3cc(S(C)(=O)=O)ccc3c2=O)cc1` : > 1040

Entry source: ChEMBL document CHEMBL5344428
